- TEST TARGET: T1, human KLK5 (human, UniProt Q9Y337 67-293)
- T1 construct: also called huKLK5; KLK5 AMC
- T1 sequence: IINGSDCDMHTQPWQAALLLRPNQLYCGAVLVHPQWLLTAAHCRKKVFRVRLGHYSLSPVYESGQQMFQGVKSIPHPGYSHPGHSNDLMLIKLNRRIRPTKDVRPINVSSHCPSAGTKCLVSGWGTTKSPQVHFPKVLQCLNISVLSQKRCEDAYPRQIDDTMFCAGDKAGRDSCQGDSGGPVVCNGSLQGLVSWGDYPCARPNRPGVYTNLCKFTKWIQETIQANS
- EXPERIMENT: SPR, one-armed monovalent antibody
Quick reference for koff among some binders
METRIC NAME: koff (s⁻¹)

BINDER: OA.hu.10C5.N53V (antibody, V domains shown, One-armed (OA) monovalent anti-KLK5 antibody with a human IgG1 Fc, without Q38E/Q39K; constant regions and dummy Fc chain not specified) VH: EVQLVESGGGLVQPGGSLRLSCAASGFSLSSYGVTWVRQAPGKGLEWIGYITSVYGVSYYASWAKSRSTISRDTSKNTVYLQMGSLRAEDMAVYYCARENPDYGYAYDAWGQGTTVTVSS VL: AIRMTQSPSSFSASTGDRVTITCQASESISNELSWYQQKPGKAPKLLIYYASTLASGVPSRFSGSGSGTDFTLTISSLQPEDFATYYCAQGFGSSGVENVFGGGTKVEIK
VALUE MODIFIER: =
OBSERVED VALUE: 9.23e-05

BINDER: OA.hu.10C5.N53V.S34K.S95F (antibody, V domains shown, One-armed (OA) monovalent anti-KLK5 antibody with a human IgG1 Fc, with Q38E/Q39K; constant regions and dummy Fc chain not specified) VH: EVQLVESGGGLVQPGGSLRLSCAASGFSLSSYGVTWVRKAPGKGLEWIGYITSVYGVSYYASWAKSRSTISRDTSKNTVYLQMGSLRAEDMAVYYCARENPDYGYAYDAWGQGTTVTVSS VL: AIRMTQSPSSFSASTGDRVTITCQASESISNELKWYQEKPGKAPKLLIYYASTLASGVPSRFSGSGSGTDFTLTISSLQPEDFATYYCAQGFGSFGVENVFGGGTKVEIK
VALUE MODIFIER: <
OBSERVED VALUE: 1e-06
